Target: Human α2δ-1 subunit of Cav2.2 calcium channel (Homo sapiens, UniProt P54289)
Sequence (P54289 25-1103): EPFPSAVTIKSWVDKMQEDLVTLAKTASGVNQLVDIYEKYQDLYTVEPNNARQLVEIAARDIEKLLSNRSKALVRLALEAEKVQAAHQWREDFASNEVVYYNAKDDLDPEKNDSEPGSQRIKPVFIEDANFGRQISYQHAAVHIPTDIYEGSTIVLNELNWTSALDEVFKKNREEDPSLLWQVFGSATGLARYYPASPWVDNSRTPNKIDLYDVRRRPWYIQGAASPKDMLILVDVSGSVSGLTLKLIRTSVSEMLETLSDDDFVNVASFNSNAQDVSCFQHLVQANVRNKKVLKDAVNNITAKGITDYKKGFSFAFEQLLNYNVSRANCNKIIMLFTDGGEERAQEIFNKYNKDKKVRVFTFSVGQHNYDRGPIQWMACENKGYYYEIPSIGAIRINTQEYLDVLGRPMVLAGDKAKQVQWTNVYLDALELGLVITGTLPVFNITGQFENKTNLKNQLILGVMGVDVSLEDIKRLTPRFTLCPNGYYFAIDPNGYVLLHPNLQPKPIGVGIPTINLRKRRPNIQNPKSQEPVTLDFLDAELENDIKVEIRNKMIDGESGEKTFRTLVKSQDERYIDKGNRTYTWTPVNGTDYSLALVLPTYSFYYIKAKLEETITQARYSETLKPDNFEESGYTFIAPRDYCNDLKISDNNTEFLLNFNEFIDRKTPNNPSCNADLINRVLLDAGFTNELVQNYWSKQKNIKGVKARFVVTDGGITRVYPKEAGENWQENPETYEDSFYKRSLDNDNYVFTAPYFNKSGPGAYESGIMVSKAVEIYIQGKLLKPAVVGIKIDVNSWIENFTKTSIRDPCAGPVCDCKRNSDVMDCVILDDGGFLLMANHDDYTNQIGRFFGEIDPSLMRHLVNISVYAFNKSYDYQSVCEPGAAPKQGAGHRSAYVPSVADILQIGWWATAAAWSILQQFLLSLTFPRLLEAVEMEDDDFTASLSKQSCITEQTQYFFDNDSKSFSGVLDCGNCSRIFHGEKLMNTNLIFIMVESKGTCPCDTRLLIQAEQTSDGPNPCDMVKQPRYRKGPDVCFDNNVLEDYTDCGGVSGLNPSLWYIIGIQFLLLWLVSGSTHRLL
Assay: Human α2δ-1 subunit of Cav2.2 calcium channel assay ([3H]-gabapentin binding)
Conditions: binding to the α2δ-1 subunit of voltage-gated calcium channels, expressed as Ki class; + also covers inhibition between 1% and 50%

| Compound | Ki |
| --- | --- |
| CCC[C@H](c1nc2ccc(Cl)cc2c(=O)n1CCC)N1CCCN(C)CC1 [Example 159] | < 0.5 µM |
| CCC[C@@H](c1nc2ccc(Br)cc2c(=O)n1CC)N1CCNC[C@@H](O)C1 [Example 113] | > 5 µM |
| CCC[C@H](c1nc2ccc(F)cc2c(=O)n1CC)N1CCCN[C@H](C)C1 [Example 143] | < 0.5 µM |
| CCC[C@H](c1nc2ccc(F)cc2c(=O)n1C)N1CCCN(C)CC1 [Example 216] | 0.5 to 5 µM |
| CCC[C@H](c1nc2ccc(Cl)cc2c(=O)n1C)N1CCN[C@H](C)CC1 [Example 245] | > 5 µM |
| CCCC(c1nc2ccc(Cc3ccccc3)cc2c(=O)n1CC)N1CCCN(C)CC1 (stereo not drawn) [Example 207] | < 0.5 µM |
| CCCC(c1nc2ccc(F)cc2c(=O)n1CC(C)C)N1CCCN(CC)CC1 (stereo not drawn) [Example 50] | < 0.5 µM |
| CCCC(c1nc2c(Cl)cc(F)cc2c(=O)n1CC)N1CCCNCC1 (stereo not drawn) [Example 71] | > 5 µM |
| CCC[C@@H](c1nc2ccc(Cl)cc2c(=O)n1CC)N1CCN(C)C[C@H](C)C1 [Example 73] | > 5 µM |

###

Molecular target: Human σ1 receptor (Homo sapiens)
Sequence (Q99720 whole entry): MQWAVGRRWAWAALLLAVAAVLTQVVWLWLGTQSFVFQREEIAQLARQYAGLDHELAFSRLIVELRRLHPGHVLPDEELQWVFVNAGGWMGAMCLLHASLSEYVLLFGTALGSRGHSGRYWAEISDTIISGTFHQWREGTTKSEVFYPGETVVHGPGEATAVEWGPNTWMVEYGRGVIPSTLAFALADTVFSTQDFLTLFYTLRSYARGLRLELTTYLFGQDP
pKi: −log10 of the molar value.
Measurement Type: pKi

| Compound | Observed |
| --- | --- |
| CCC[C@H](c1nc2c(F)cccc2c(=O)n1CC)N1CCCN(C)CC1 [Example 248] | < 6.00 |
| CCCC(c1nc2cc(F)c(Br)cc2c(=O)n1CCC)N1CCCN(CC)CC1 (centres unmarked) [Example 61] | > 6.30 |
| CCC[C@H](c1nc2cc(F)c(OC)cc2c(=O)n1CC)N1CCN(C)C[C@@H](C)C1 [Example 237] | < 6.00 |
| CCCC(c1nc2ncc(Br)cc2c(=O)n1CC1CC1)N1CCCN(C)CC1 (centres unmarked) [Example 183] | < 6.00 |
| CCC[C@@H](c1nc2ccncc2c(=O)n1CC)N1CCCN(C)CC1 [Example 174] | < 6.00 |
| CCC[C@H](c1nc2ncc(F)cc2c(=O)n1CC1CC1)N1CCN[C@H](C)CC1 [Example 196] | < 6.00 |
| CCC[C@@H](c1nc2ccncc2c(=O)n1CC)N1CCN(C)C[C@@H](C)C1 [Example 171] | < 6.00 |
| CCC[C@H](c1nc2ccc(Br)cc2c(=O)n1CC)N1CCN(C)C[C@H](C)C1 [Example 36] | 6.00 to 6.30 |
| CCC[C@@H](c1nc2ccc(Br)cc2c(=O)n1CC)N1CCN(C)C[C@@H](C)C1 [Example 38] | < 6.00 |
| CCC[C@H](c1nc2ccncc2c(=O)n1CC)N1CCN(C)C[C@H](C)C1 [Example 169] | < 6.00 |
| CCCC(c1nc2ccc(Br)cc2c(=O)[nH]1)N1CCCN(C)CC1 (centres unmarked) [Example 122] | 6.00 to 6.30 |
| CCC[C@H](c1nc2cc(F)c(Cl)cc2c(=O)n1CC)N1CCN(C)C[C@H](C)C1 [Example 135] | > 6.30 |
| CCCC(c1nc2ccc(F)cc2c(=O)n1CC)C1CCCNCC1 (centres unmarked) [Example 266] | < 6.00 |
| CCC[C@H](c1nc2c(F)cc(Cl)cc2c(=O)n1CC)N1CCCN(C)CC1 [Example 234] | 6.00 to 6.30 |
| CCC[C@H](c1nc2ccc(F)cc2c(=O)n1CC)N1CCCN[C@H](C)C1 [Example 143] | > 6.30 |
| CCC[C@H](c1nc2ccc(F)cc2c(=O)n1C)N1CCN[C@H](C)CC1 [Example 255] | < 6.00 |
| CCCC(c1nc2cc(Br)ccc2c(=O)n1CC)N1CCCN(C)CC1 (centres unmarked) [Example 3] | < 6.00 |
| CCC[C@H](c1nc2ccc(Cl)cc2c(=O)n1C)N1CC[C@@H](C)N(C)CC1 [Example 257] | > 6.30 |
| CCC[C@H](c1nc2ccc(C(F)(F)F)cc2c(=O)n1CC)N1CCCN(C)CC1 [Example 252] | > 6.30 |
| CCC[C@H](c1nc2cc(F)c(F)cc2c(=O)n1CC)N1CCN[C@@H](C)CC1 [Example 242] | > 6.30 |
| CCC[C@H](c1nc2cc(F)c(F)cc2c(=O)n1CC)N1CCCN(C)CC1 [Example 232] | > 6.30 |
| CCCC(c1nc2ccc(Br)cc2c(=O)n1C)N1CCCN(CC)CC1 (centres unmarked) [Example 85] | > 6.30 |
| CCC[C@H](c1nc2cc(F)c(OC)cc2c(=O)n1CC)N1CCCN(C)CC1 [Example 220] | < 6.00 |
| CCCC(c1nc2cnccc2c(=O)n1CC)N1CCCN(C)CC1 (centres unmarked) [Example 17] | < 6.00 |
| CCCC(c1nc2ccc(Cl)cc2c(=O)n1CCC)N1CCCN(CC)CC1 (centres unmarked) [Example 79] | > 6.30 |
| CCC[C@@H](c1nc2c(F)cc(Br)cc2c(=O)n1CC)N1CCCN(C)CC1 [Example 162] | 6.00 to 6.30 |
| CCC[C@H](c1nc2cc(F)c(OC)cc2c(=O)n1CC)N1CCNC[C@@H](C)C1 [Example 243] | < 6.00 |
| CCC[C@H](c1nc2ccc(Cl)cc2c(=O)n1C)N1CC[C@H](C)N(C)CC1 [Example 254] | > 6.30 |
| CCCC(c1nc2ccc(Br)cc2c(=O)n1C)N1CCCN(C)CC1 (centres unmarked) [Example 84] | > 6.30 |
| CCCC(c1nc2ccc(F)cc2c(=O)n1CC)C1CCCN(CC)CC1 (centres unmarked) [Example 268] | > 6.30 |
| CCCC(c1nc2ccc(Cc3ccccc3)cc2c(=O)n1CC)N1CCCN(C)CC1 (centres unmarked) [Example 207] | 6.00 to 6.30 |
| CCCC(c1nc2ncc(F)cc2c(=O)n1CC1CC1)N1CCCN(C)CC1 (centres unmarked) [Example 184] | < 6.00 |
| CCCC(c1nc2ccc(Br)cc2c(=O)n1CCOC)N1CCCN(C)CC1 (centres unmarked) [Example 14] | < 6.00 |
| CCCC(c1nc2ccc(F)c(F)c2c(=O)n1CC)N1CCCNCC1 (centres unmarked) [Example 81] | 6.00 to 6.30 |
| CCC[C@@H](c1nc2cc(F)c(Br)cc2c(=O)n1CC)N1CCCN(C)CC1 [Example 156] | 6.00 to 6.30 |
